Biological target: hGal8^CTD (Homo sapiens)
Sequence (O00214 187-317 limits assumed): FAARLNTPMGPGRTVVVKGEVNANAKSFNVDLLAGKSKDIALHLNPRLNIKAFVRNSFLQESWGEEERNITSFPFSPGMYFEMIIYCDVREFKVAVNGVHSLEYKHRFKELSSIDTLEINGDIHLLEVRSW
Experiment: Intrinsic tryptophan fluorescence titration (SVD analysis)
Assay type: binding
Design: hGal8 N-terminal domain (hGal8^NTD) and C-terminal domain (hGal8^CTD); made in house; host or cells: Escherichia coli BL21 (DE3)
Details: 298 K, PBS, 10 μM protein
Property Name: pKd
Interpret pKd as the negative base-10 log of the concentration measured in mol/L.

Asked: Which pKd value belongs to OC[C@H]1O[C@@H](O[C@H]2[C@H](O)[C@@H](O)C(O)O[C@@H]2CO)[C@H](O)[C@@H](O)[C@H]1O (mixture of isomers) ?
Given back: 3.11

====

target: hGal7 (human galectin-7) (Homo sapiens); experiment: 2D NMR lineshape analysis (TITAN), two-state binding model; parameters: The constructs encoding the open reading frames of hGal1, hGal7 and hGal8 with a hexahistidine tag at the N-termini; hexahistidine tag (N); made in house; host or cells: Escherichia coli BL21 (DE3); details: 298 K
Sequence (P47929 whole entry): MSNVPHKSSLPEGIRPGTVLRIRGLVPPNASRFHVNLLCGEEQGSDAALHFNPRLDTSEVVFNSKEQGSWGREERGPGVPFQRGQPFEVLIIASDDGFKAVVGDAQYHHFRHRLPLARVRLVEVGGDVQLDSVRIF
Property Name: pKd
# pKd: negative log10 of molar concentration; output just the value

Asked: Requested read-out: pKd. Entry: OC[C@H]1O[C@@H](O[C@H]2[C@H](O)[C@@H](O)C(O)O[C@@H]2CO)[C@H](O)[C@@H](O)[C@H]1O (mixture of isomers)
Given back: 3.45

====

Biological target: hGal8^full(NTD) (NTD of full-length galectin-8) (Homo sapiens, UniProt O00214)
Sequence (O00214 1-317): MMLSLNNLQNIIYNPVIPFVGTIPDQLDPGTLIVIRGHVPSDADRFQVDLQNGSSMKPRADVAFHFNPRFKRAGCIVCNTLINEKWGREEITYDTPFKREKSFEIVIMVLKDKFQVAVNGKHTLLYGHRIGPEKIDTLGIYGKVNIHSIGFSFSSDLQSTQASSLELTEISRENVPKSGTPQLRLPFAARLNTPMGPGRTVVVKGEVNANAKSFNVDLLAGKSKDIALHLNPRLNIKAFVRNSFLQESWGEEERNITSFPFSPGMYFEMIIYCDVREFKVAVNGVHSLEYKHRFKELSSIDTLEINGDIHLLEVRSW
Assay: 2D NMR lineshape analysis (TITAN), two-state binding model
Design: A full-length hGal8 (hGal8^full) variant encompassing a 17-residue linker was used; hexahistidine tag (N); made in house; host or cells: Escherichia coli BL21 (DE3)
Details: NTD of full-length hGal8 (G127), 298 K
Procedure: The advantage of using NMR titration to determine Kd values is the ability to simultaneously characterise microscopy binding events at different binding sites. […] The same lineshape analysis was performed for hGal8^full titration experiments, which yielded similar Kd values to those derived from CSP data (Figure S2; Table 1). HSQC spectra were also analysed by the TITAN program using a two-state binding model. […]
Property Name: Kd (µM)
Give a bare numeral; the unit µM is implied.

Asked: Which Kd value is on record for OC[C@H]1O[C@@H](O[C@H]2[C@H](O)[C@@H](O)C(O)O[C@@H]2CO)[C@H](O)[C@@H](O)[C@H]1O (mixture of isomers) [Lactose, lactose] ?
Given back: 167

// provenance: paper PMC6152064
